Data provenance: paper PMC8311649

# experimentDescription: Metabolic stability across all matrixes and species
# Format: in vitro ADME
# setupConditions: CD-1 (mouse), Sprague-Dawley (rat), beagle (dog), cynomolgus monkey, human, intestinal S9, liver S9 and plasma
reportedEndpoint: half-life at 3 µM

Input: Bench note: what half-life at 3 µM did CCC(=O)N[C@H]1Cc2cccc(C(=O)O)c2OB1O [compound 5] show?
Output: > 2 h

====

# experimentDescription: Bidirectional permeability through Caco-2 monolayers
# Format: in vitro ADME, human
# setupConditions: human, Caco-2, pH 7.4, recovery (%), B-to-A; 5 µM, 120 minutes
reportedEndpoint: recovery at 120 min, 5 µM
Reply with a number, then the unit it belongs to.

structureSmilesString	endpointValue
CCC(=O)N[C@H]1Cc2cccc(C(=O)OCOC(=O)C(CC)CC)c2OB1O	98%

Input: Bench note: what recovery at 120 min, 5 µM did CCC(=O)N[C@H]1Cc2cccc(C(=O)O)c2OB1O show?
Output: 106%

====

# targetEntity: SHV-5 (class A) (Klebsiella pneumoniae, UniProt P0A3M1)
# Sequence (P0A3M1 22-286, species assumed): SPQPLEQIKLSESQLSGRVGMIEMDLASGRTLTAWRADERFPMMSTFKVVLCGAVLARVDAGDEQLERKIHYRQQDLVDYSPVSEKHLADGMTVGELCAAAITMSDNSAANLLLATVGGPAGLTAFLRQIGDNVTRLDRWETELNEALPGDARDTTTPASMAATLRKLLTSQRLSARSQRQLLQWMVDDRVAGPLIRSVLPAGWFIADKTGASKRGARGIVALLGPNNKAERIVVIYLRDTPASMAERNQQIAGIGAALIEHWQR
# experimentDescription: β-lactamase inhibition assay, SHV-5
# Type: biochemical
reportedEndpoint: pIC50
Note on pIC50: it is the negative log10 of concentration, concentration in mol/L.

Input: Bench note: what pIC50 did CC(F)(F)CCC(=O)N[C@H]1Cc2cccc(C(=O)O)c2OB1O show?
Output: 8.22
